- system: IGF1R (Homo sapiens)
- assayDetails: Biochemical assay for inhibitors of IGF-1R kinase activity (trans-phosphorylation assay, robotized Dowex assay)
- Set-up: amino acid residues 960-1367 of precursor protein; made in house; host or cells: H5 insect cells (baculovirus; virus made in Sf21 cells)
assayReadout: IC50

1) CN1CCN(c2ccc(C(=O)Nc3n[nH]c4c3CN(S(=O)(=O)c3cc(F)cc(F)c3)C4(C)C)c(NC(=O)c3cc[nH]c3)c2)CC1 | 0.09 µM

###

- system: IGF1R (Homo sapiens, UniProt P08069)
- Sequence (P08069 960-1367): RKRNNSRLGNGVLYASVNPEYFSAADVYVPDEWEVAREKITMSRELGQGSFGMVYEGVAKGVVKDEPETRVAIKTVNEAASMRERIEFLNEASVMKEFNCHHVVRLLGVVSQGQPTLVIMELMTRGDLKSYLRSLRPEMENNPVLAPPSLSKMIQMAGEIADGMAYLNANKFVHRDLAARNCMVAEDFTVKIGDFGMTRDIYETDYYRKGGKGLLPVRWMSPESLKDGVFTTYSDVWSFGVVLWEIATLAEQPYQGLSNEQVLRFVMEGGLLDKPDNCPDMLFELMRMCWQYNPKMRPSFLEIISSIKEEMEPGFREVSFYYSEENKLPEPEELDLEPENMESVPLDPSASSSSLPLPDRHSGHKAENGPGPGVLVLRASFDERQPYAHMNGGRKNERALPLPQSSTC
- assayDetails: Biochemical assay for inhibitors of IGF-1R kinase activity (trans-phosphorylation assay, robotized Dowex assay)
- Set-up: amino acid residues 960-1367 of precursor protein; made in house; host or cells: H5 insect cells (baculovirus; virus made in Sf21 cells)
- settings: 6 nM enzyme, 6 microM ATP, 10 microM peptide substrate; read-out: IGF1R IC50 (μM) Biochemical assay
# IC50 listing for each entry below
assayReadout: IC50 (µM)

1) CN1CCN(c2ccc(C(=O)Nc3n[nH]c4c3CN(S(=O)(=O)c3cc(F)cc(F)c3)C4(C)C)c(NC(=O)[C@@H]3CCCO3)c2)CC1 | 0.17
2) CC(C)CNc1cc(N2CCN(C)CC2)ccc1C(=O)Nc1n[nH]c2c1CN(S(=O)(=O)c1cc(F)cc(F)c1)C2(C)C.Cl [Compound 90, hydrochloride] | 0.46
